Sourced from patent US11618746B2

target: APOL1 G1 Protein (Homo sapiens, UniProt O14791, I384M/S342G); experiment: Trypanosoma brucei brucei lysis assay using APOL1 recombinant protein (AlamarBlue viability readout); conditions: Trypanosoma brucei brucei (Lister 427 VSG 221 bloodstream form) lysis by 0.05 μg/mL recombinant APOL1 G1, 16 hrs
Sequence (O14791 28-398 S342G/I384M): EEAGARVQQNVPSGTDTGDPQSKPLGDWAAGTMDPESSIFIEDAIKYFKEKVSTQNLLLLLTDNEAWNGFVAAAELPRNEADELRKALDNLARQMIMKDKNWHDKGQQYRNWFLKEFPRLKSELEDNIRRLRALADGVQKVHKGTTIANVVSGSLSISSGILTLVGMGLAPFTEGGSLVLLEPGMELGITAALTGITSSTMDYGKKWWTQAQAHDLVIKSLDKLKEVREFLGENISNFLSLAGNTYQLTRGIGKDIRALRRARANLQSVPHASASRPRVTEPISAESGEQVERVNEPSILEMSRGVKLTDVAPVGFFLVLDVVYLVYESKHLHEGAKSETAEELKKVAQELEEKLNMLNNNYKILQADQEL
The entries below are paired with their reported IC50.

[
  {
    "ENTRY SMILES": "O=C1C[C@H](NC(=O)CCc2c(-c3ccc(F)cc3)[nH]c3c(F)cc(F)cc23)C(=O)N1",
    "ASSAY SYSTEM": "APOL1 G1 Protein (Homo sapiens, UniProt O14791, I384M/S342G)",
    "IC50": "250 to 1000 nM"
  },
  {
    "ENTRY SMILES": "O=C(CCc1c(-c2ccc(F)cc2)[nH]c2ccc(F)cc12)N[C@H]1CCNC1=O",
    "ASSAY SYSTEM": "APOL1 G1 Protein (Homo sapiens, UniProt O14791, I384M/S342G)",
    "IC50": "< 250 nM"
  },
  {
    "ENTRY SMILES": "O=C(CCc1c(-c2ccc(F)cc2)[nH]c2c(F)cc(F)cc12)N[C@@H]1CCNC1=O",
    "ASSAY SYSTEM": "APOL1 G1 Protein (Homo sapiens, UniProt O14791, I384M/S342G)",
    "IC50": "< 250 nM"
  },
  {
    "ENTRY SMILES": "O=C(CCc1c(-c2ccc(F)cc2)[nH]c2c(F)cc(Cl)cc12)N[C@@H]1C(=O)NC[C@H]1O",
    "ASSAY SYSTEM": "APOL1 G1 Protein (Homo sapiens, UniProt O14791, I384M/S342G)",
    "IC50": "< 250 nM"
  },
  {
    "ENTRY SMILES": "N#Cc1cc(F)cc2c(CCC(=O)N[C@@H]3C(=O)NC[C@H]3O)c(-c3ccc(F)cc3)[nH]c12",
    "ASSAY SYSTEM": "APOL1 G1 Protein (Homo sapiens, UniProt O14791, I384M/S342G)",
    "IC50": "< 250 nM"
  },
  {
    "ENTRY SMILES": "O=C(CCc1c(-c2ccc(F)cc2)[nH]c2c(F)cc(Br)cc12)N[C@H]1CCNC1=O",
    "ASSAY SYSTEM": "APOL1 G1 Protein (Homo sapiens, UniProt O14791, I384M/S342G)",
    "IC50": "< 250 nM"
  },
  {
    "ENTRY SMILES": "O=C(CCc1c(-c2ccc(C(F)F)cc2)[nH]c2ccccc12)N[C@@H]1C(=O)NC[C@H]1O",
    "ASSAY SYSTEM": "APOL1 G1 Protein (Homo sapiens, UniProt O14791, I384M/S342G)",
    "IC50": "< 250 nM"
  },
  {
    "ENTRY SMILES": "O=C(CCc1c(-c2ccc(OC(F)(F)F)cc2)[nH]c2ccccc12)N[C@@H]1C(=O)NC[C@H]1O",
    "ASSAY SYSTEM": "APOL1 G1 Protein (Homo sapiens, UniProt O14791, I384M/S342G)",
    "IC50": "< 250 nM"
  },
  {
    "ENTRY SMILES": "O=C(CCc1c(-c2ccc(F)cc2)[nH]c2c(F)cc(F)cc12)N[C@@H]1C(=O)NC[C@H]1O",
    "ASSAY SYSTEM": "APOL1 G1 Protein (Homo sapiens, UniProt O14791, I384M/S342G)",
    "IC50": "< 250 nM"
  },
  {
    "ENTRY SMILES": "O=C(CCc1c(-c2ccc(F)cc2)[nH]c2c(Cl)cc(F)cc12)N[C@@H]1C(=O)NC[C@H]1O",
    "ASSAY SYSTEM": "APOL1 G1 Protein (Homo sapiens, UniProt O14791, I384M/S342G)",
    "IC50": "< 250 nM"
  },
  {
    "ENTRY SMILES": "O=C(CCc1c(-c2ccc(F)cc2)[nH]c2c(Cl)cccc12)N[C@H]1CCNC1=O",
    "ASSAY SYSTEM": "APOL1 G1 Protein (Homo sapiens, UniProt O14791, I384M/S342G)",
    "IC50": "< 250 nM"
  },
  {
    "ENTRY SMILES": "O=C(CCc1c(-c2ccc(F)cc2)[nH]c2c(OC(F)F)cc(F)cc12)N[C@@H]1C(=O)NC[C@H]1O",
    "ASSAY SYSTEM": "APOL1 G1 Protein (Homo sapiens, UniProt O14791, I384M/S342G)",
    "IC50": "250 to 1000 nM"
  },
  {
    "ENTRY SMILES": "N#Cc1ccc(-c2[nH]c3ccccc3c2CCC(=O)N[C@@H]2C(=O)NC[C@H]2O)cc1",
    "ASSAY SYSTEM": "APOL1 G1 Protein (Homo sapiens, UniProt O14791, I384M/S342G)",
    "IC50": "< 250 nM"
  },
  {
    "ENTRY SMILES": "O=C(CCc1c(-c2ccc(C(F)(F)F)cc2)[nH]c2ccccc12)N[C@@H]1C(=O)NC[C@H]1O",
    "ASSAY SYSTEM": "APOL1 G1 Protein (Homo sapiens, UniProt O14791, I384M/S342G)",
    "IC50": "< 250 nM"
  },
  {
    "ENTRY SMILES": "COc1cc(F)cc2c(CCC(=O)N[C@@H]3C(=O)NC[C@H]3O)c(-c3ccc(F)cc3)[nH]c12",
    "ASSAY SYSTEM": "APOL1 G1 Protein (Homo sapiens, UniProt O14791, I384M/S342G)",
    "IC50": "< 250 nM"
  },
  {
    "ENTRY SMILES": "O=C(CCc1c(-c2ccccc2)[nH]c2c(F)c(F)ccc12)N[C@@H]1C(=O)NC[C@H]1O",
    "ASSAY SYSTEM": "APOL1 G1 Protein (Homo sapiens, UniProt O14791, I384M/S342G)",
    "IC50": "< 250 nM"
  },
  {
    "ENTRY SMILES": "O=C(CCc1c(-c2ccc(F)cc2)[nH]c2c(F)cc(F)cc12)N[C@H]1C[C@@H](CO)NC1=O",
    "ASSAY SYSTEM": "APOL1 G1 Protein (Homo sapiens, UniProt O14791, I384M/S342G)",
    "IC50": "> 1000 nM"
  },
  {
    "ENTRY SMILES": "O=C(CCc1c(-c2ccc(OC(F)F)cc2)[nH]c2c(F)cc(F)cc12)N[C@@H]1C(=O)NC[C@H]1O",
    "ASSAY SYSTEM": "APOL1 G1 Protein (Homo sapiens, UniProt O14791, I384M/S342G)",
    "IC50": "< 250 nM"
  },
  {
    "ENTRY SMILES": "Cc1ccc2[nH]c(-c3ccc(Br)cc3)c(CCC(=O)N[C@H]3CCNC3=O)c2c1",
    "ASSAY SYSTEM": "APOL1 G1 Protein (Homo sapiens, UniProt O14791, I384M/S342G)",
    "IC50": "< 250 nM"
  },
  {
    "ENTRY SMILES": "O=C(CCc1c(-c2ccccc2)[nH]c2c(C(F)(F)F)cccc12)N[C@@H]1C(=O)NC[C@H]1O",
    "ASSAY SYSTEM": "APOL1 G1 Protein (Homo sapiens, UniProt O14791, I384M/S342G)",
    "IC50": "> 1000 nM"
  }
]
